Molecular target: wild-type ELIC (Dickeya chrysanthemi, UniProt P0C7B7, INS163G)
Construct: expressed in transfected cells; host or cells: Xenopus laevis oocytes injected with cRNA from ELIC-pTLN
Experiment: Two-electrode voltage clamp, whole-cell currents of wild-type ELIC expressed in Xenopus laevis oocytes
Format: cell-based, Erwinia chrysanthemi
Conditions: ACh IC50, WT ELIC, inhibition of GABA-activated current, GABA at its EC50 (2.7 mM)
Method: Stage V-VI Xenopus laevis oocytes were isolated[72] and deflocculated enzymatically in ND96 buffer without Ca^2+ (96 mM NaCl, 2 mM KCl, 1 mM MgCl2, 2 mM pyruvate, 5 mM HEPES, pH 7.4), but supplemented with 1 mg/mL collagenase B and 1 mg/mL trypsin inhibitor, for 2 h at room temperature under constant stirring. […]
observation_type: pIC50
The meaning of pIC50 here: minus log10 of the concentration in molar units.

# lookup: pIC50 of "CC(=O)OCC[N+](C)(C)C"
2.96

====

Target: wild-type ELIC (Dickeya chrysanthemi, UniProt P0C7B7, INS163G)
Construct: expressed in transfected cells; host or cells: Xenopus laevis oocytes injected with cRNA from ELIC-pTLN
Assay: Two-electrode voltage clamp, whole-cell currents of wild-type ELIC expressed in Xenopus laevis oocytes
Format: cell-based, Erwinia chrysanthemi
Description: Stage V-VI Xenopus laevis oocytes were isolated[72] and deflocculated enzymatically in ND96 buffer without Ca^2+ (96 mM NaCl, 2 mM KCl, 1 mM MgCl2, 2 mM pyruvate, 5 mM HEPES, pH 7.4), but supplemented with 1 mg/mL collagenase B and 1 mg/mL trypsin inhibitor, for 2 h at room temperature under constant stirring. […]
observation_type: pEC50
The meaning of pEC50 here: minus log10 of the concentration in molar units.

# lookup: pEC50 of NCCCC(=O)O [GABA, γ-aminobutyric acid]
2.57

====

Target: ELIC A75D (Dickeya chrysanthemi, UniProt P0C7B7, A75D/INS163G)
Test: Two-electrode voltage clamp, A75D mutant ELIC expressed in Xenopus laevis oocytes
observation_type: pIC50
The meaning of pIC50 here: minus log10 of the concentration in molar units.

# lookup: pIC50 of "CC(=O)OCC[N+](C)(C)C"
2.15

====

Biological target: ELIC F133W (Dickeya chrysanthemi, UniProt P0C7B7, F133W)
Assay: cell-based
Type: cell-based, Erwinia chrysanthemi
observation_type: pIC50
The meaning of pIC50 here: minus log10 of the concentration in molar units.

# lookup: pIC50 of CC(=O)OCC[N+](C)(C)C [ACh, acetylcholine]
2.10
